- measured on: T1, human CD4 on cells (SKW3 cells; human PBMCs) (human, UniProt P01730 26-458)
- T1 construct: whole, on cells; SKW3 CD4 knockout cells served as the negative cell line; also called hCD4
- protocol: FACS confirmation, supernatant on human PBMCs, anti-mouse Fc 647, CD4+ gate
# maps each entry to its PBMCs, anti-mFc 647 CD4+ gate - RL1 Binding
readout label: PBMCs, anti-mFc 647 CD4+ gate - RL1 Binding

- binder: "75110_12K21A (antibody, V domains shown, Tested as non-clonal AlivaMab Mouse Kappa hybridoma supernatant: human variable domains and human kappa, mouse Fc) VH: QVQLQQWGAGLLKPSETLSLTCAVSGGSFSGYYWSWIRQPPGKGLEWIGEINHSGSTNCNPSLKSRVTISVDTSNNQFSLKLSSVTAADTAVYYCARVLNYFDYWGQGTLVTVSS VL: DIQMTQSPSSVSASVGDRVTITCRASPDIANWLAWYQQKPGKAPELLIYAASSLQSGVPSRFSGSGSGTDFTLTISSLQPEDFATYFCQQANSFPLTFGGGTKVESK"
  numeric readout: 335000
- binder: "75110_04F22A (antibody, V domains shown, Tested as non-clonal AlivaMab Mouse Kappa hybridoma supernatant: human variable domains and human kappa, mouse Fc) VH: EVQLVESGGGLVQPGGSLRLSCAASGFTFSSYDIHWVRQATGKGLEWVSTIGTAGDTYYPGSVKGRFTISRENAKNSLYLQMNSLRAGDTAVYYCARGGYYYYGMDVWGQGTTVTVSS VL: EIVLTQSPGTLSLSPGERATLSCRASQSVYSSYLAWYQQKPGQAPRLLIYGASSRATGIPDRFSGSGSGTDFTLTISRLEPEDFAVYYCQQFGTSPFTFGPGTKVDIK"
  numeric readout: 286000
- binder: "75110_05K11A (antibody, IgG1, V domains shown, Tested as non-clonal AlivaMab Mouse Kappa hybridoma supernatant: human variable domains and human kappa, mouse Fc) VH: EVQLVESGGGLVQPGGSLRLSCAASGFTFSSYDMHWVRQPTGKGLEWVSTIGTAGDTYYPASVKGRFTISRENAKNSLYLQMNSLRAGDTAVYYCARGGFYYYGMDVWGQGTTVTVSS VL: EIVLTQSPGTLSLSPGERVTLSCRASQSVSNTYLAWYQQKPGQAPRLLIYGASSRATGIPDRFSGSGSGTDFTLTISRLEPEDFVVYYCQQHGSSPFTFGPGTKVDIK"
  numeric readout: 267000

From: patent US20220112288A1
